pIC50: −log10 of the molar value.
pIC50 values recorded for Bcl-2-like protein 1 (Homo sapiens, UniProt Q07817)
TEST_READOUT: pIC50

COc1ccc2c(c[n+](C)c3c4cc5c(cc4ccc23)OCO5)c1OC; 4.00
Cn1cc2c(=O)c(O)ccc-2c2ccccc21; 4.74
C[n+]1cc2c3c(ccc2c2ccc4cc5c(cc4c21)OCO5)OCO3; 4.72
Cn1cc2c(=O)c(O)ccc-2c2cc(CCO)ccc21; 4.66
